This collection of values is drawn from patent US11850220B2.

system: carrageenan-induced paw edema; assay: carrageenan-induced paw edema technique (anti-inflammatory); format: in vivo; settings: 1 h
# Mean edema thickness per entry

- compound: "CC(C)Cc1ccc(C(C)C(=O)NCCCC(=O)Nc2ccc(O)cc2)cc1 (centres unmarked)"
  Mean edema thickness / mm: 1.07
- compound: "COc1ccc2c(c1)c(CC(=O)O)c(C)n2C(=O)c1ccc(Cl)cc1 [Indomethacin, reference compound]"
  Mean edema thickness / mm: 0.69
- compound: "CC(C)Cc1ccc(C(C)C(=O)N[C@@H](Cc2ccccc2)C(=O)Nc2ccc(O)cc2)cc1 (some centres unmarked)"
  Mean edema thickness / mm: 0.76
- compound: "CC(C)Cc1ccc(C(C)C(=O)NCCCC(=O)O)cc1 (centres unmarked)"
  Mean edema thickness / mm: 0.96
- compound: "CC(C)Cc1ccc(C(C)C(=O)N[C@@H](Cc2ccccc2)C(=O)O)cc1 (some centres unmarked)"
  Mean edema thickness / mm: 0.92
- compound: "CC[C@H](C)[C@@H](NC(=O)C(C)c1ccc(CC(C)C)cc1)C(=O)Nc1ccc(O)cc1 (some centres unmarked)"
  Mean edema thickness / mm: 0.71
- compound: "CC(C)Cc1ccc(C(C)C(=O)NCC(=O)Nc2ccc(O)cc2)cc1 (centres unmarked)"
  Mean edema thickness / mm: 0.73
- compound: "CC(C)Cc1ccc(C(C)C(=O)NCCC(=O)Nc2ccc(O)cc2)cc1 (centres unmarked)"
  Mean edema thickness / mm: 0.80
- compound: "CC(C)Cc1ccc(C(C)C(=O)N[C@@H](C)C(=O)O)cc1 (some centres unmarked)"
  Mean edema thickness / mm: 0.81
- compound: "CC(C)Cc1ccc(C(C)C(=O)N[C@@H](CC(C)C)C(=O)Nc2ccc(O)cc2)cc1 (some centres unmarked)"
  Mean edema thickness / mm: 0.86
- compound: "CC(C)Cc1ccc(C(C)C(=O)N[C@@H](C)C(=O)Nc2ccc(O)cc2)cc1 (some centres unmarked)"
  Mean edema thickness / mm: 0.97
- compound: "CC(C)Cc1ccc(C(C)C(=O)O)cc1 (centres unmarked) [Ibuprofen, reference compound]"
  Mean edema thickness / mm: 0.92
- compound: "CC(C)Cc1ccc(C(C)C(=O)N[C@@H](CCC(N)=O)C(=O)Nc2ccc(O)cc2)cc1 (some centres unmarked)"
  Mean edema thickness / mm: 0.55
- compound: "CC[C@H](C)C(NC(=O)C(C)c1ccc(CC(C)C)cc1)C(=O)O (stereo in doubt)"
  Mean edema thickness / mm: 0.90
